- tested system: SNM1B (Homo sapiens, UniProt Q9H816)
- Construct: gene DCLRE1B; 5'-3' exonuclease with MBL and beta-CASP domains
- Sequence (Q9H816 1-335): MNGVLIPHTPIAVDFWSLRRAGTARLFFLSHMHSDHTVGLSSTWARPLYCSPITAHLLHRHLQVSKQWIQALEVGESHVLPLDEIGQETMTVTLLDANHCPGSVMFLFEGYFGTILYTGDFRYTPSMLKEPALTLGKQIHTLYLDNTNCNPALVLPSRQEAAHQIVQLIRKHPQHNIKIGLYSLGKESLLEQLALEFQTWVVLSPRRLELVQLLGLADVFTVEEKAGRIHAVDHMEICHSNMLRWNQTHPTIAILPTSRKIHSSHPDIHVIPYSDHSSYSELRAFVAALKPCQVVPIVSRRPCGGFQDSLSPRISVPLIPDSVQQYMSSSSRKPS
- assay method text: real-time fluorescence nuclease assay (fluorescein/BHQ1 20-nt ssDNA)
- Type: biochemical
Here the recorded IC50 is given for each entry.
measured attribute: IC50 (µM)

test smiles	qualifier symbol	reported result
CO/N=C(\C(=O)N[C@@H]1C(=O)N2C(C(=O)O)=C(COC(C)=O)CS[C@H]12)c1csc(N)n1	=	129
CC(=O)OCC1=C(C(=O)O)N2C(=O)[C@@H](N)[C@H]2SC1	=	32
CO/N=C(\C(=O)N[C@@H]1C(=O)N2C(C(=O)O)=C(CSc3nc(=O)c(=O)[nH]n3C)CS[C@H]12)c1csc(N)n1	=	40
CC(=O)OCC1=C(C(=O)O)N2C(=O)[C@@H](NC(=O)CCC[C@@H](N)C(=O)O)[C@H]2SC1	>	500

* * *

Here the recorded IC50 is given for each entry.
- tested system: SNM1A (Homo sapiens, UniProt Q6PJP8)
- Construct: gene DCLRE1A; 5'-3' exonuclease with MBL and beta-CASP domains
- Sequence (Q6PJP8 700-1040): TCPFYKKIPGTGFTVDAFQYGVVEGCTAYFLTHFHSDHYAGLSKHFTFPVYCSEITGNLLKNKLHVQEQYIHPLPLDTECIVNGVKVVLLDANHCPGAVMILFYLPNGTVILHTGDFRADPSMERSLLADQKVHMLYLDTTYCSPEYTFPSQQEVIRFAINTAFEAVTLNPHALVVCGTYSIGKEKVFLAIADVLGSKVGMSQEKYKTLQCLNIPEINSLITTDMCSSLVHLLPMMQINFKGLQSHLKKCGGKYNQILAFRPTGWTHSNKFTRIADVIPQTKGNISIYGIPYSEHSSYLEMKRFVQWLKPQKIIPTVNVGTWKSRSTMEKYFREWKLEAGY
- assay method text: real-time fluorescence nuclease assay (fluorescein/BHQ1 20-nt ssDNA)
- Assay type: biochemical
measured attribute: IC50 (µM)

compound	measured attribute	qualifier symbol	reported result
CO/N=C(\C(=O)N[C@@H]1C(=O)N2C(C(=O)O)=C(CSc3nc(=O)c(=O)[nH]n3C)CS[C@H]12)c1csc(N)n1 [compound 4, Ceftriaxone]	IC50	=	4
CO/N=C(\C(=O)N[C@@H]1C(=O)N2C(C(=O)O)=C(COC(C)=O)CS[C@H]12)c1csc(N)n1 [compound 3, Cefotaxime]	IC50	=	5
CC(C)(O/N=C(\C(=O)N[C@@H]1C(=O)N2C(C(=O)[O-])=C(C[n+]3ccccc3)CS[C@H]12)c1csc(N)n1)C(=O)O [Ceftazidime]	IC50	>	500
CC(=O)OCC1=C(C(=O)O)N2C(=O)[C@@H](NC(=O)CCC[C@@H](N)C(=O)O)[C@H]2SC1 [compound 2, Cephalosporin C]	IC50	=	61
CC(=O)OCC1=C(C(=O)O)N2C(=O)[C@@H](N)[C@H]2SC1 [compound 1, 7-ACA]	IC50	=	7

* * *

- assay method text: real-time fluorescence nuclease assay (fluorescein/BHQ1 20-nt ssDNA)
- Format: biochemical, Homo sapiens
- assay setup: read-out: IC50 SNM1A ^a /μM

compound	IC50
CC(C)(O/N=C(\C(=O)N[C@@H]1C(=O)N2C(C(=O)[O-])=C(C[n+]3ccccc3)CS[C@H]12)c1csc(N)n1)C(=O)O [Ceftazidime]	> 500 µM
